# Tested on: Z-138 cells
# Experiment Summary: Z-138 Proliferation Assay (Cell Titer Glo)
# Type: cell-based
# Reported Conditions: Homo sapiens, 120 h, 5 days incubation
pEC50: −log10 of the molar value.
Readout: pEC50

Solved cases below.
O=C(COc1cccc2cccnc12)NC[C@H](O)CN1Cc2ccccc2C1 : 5.00 to 6.00
CN1CCOc2cccc(OCC(=O)NC[C@H](O)CN3Cc4ccccc4C3)c21 : < 4.70
CN(C)S(=O)(=O)c1ccccc1OCC(=O)NC[C@@H](O)CN1Cc2ccccc2C1 : < 4.70

Need pEC50 of O=C(NC[C@H](O)CN1CCCCc2ccccc21)c1cc(NC2COC2)ncn1 , thanks.
< 5.30

----------
# System: symmetric di-methyl arginine in Z-138 cells
# Experiment Summary: Z-138 Methylation Assay (In Cell Western for symmetric di-methyl arginine and DNA content)
# Type: cell-based
# Reported Conditions: Homo sapiens, 96 hours incubation, read-out: ICW EC50
Listed compounds paired with reported EC50

Solved cases below.
CC(=O)N1CCC(Nc2cc(C(=O)NC[C@H](O)CN3CCCc4ccccc4C3)ccn2)CC1 : > 1000 nM
CN(C)S(=O)(=O)c1ccccc1OCC(=O)NCC(O)CN1Cc2ccccc2C1 (centres unmarked) : 101 to 1000 nM
O=C(NC[C@H](O)CN1Cc2ccccc2C1)c1cncc(OC2CCOCC2)c1 : 1000 to 10000 nM

Proceeding to the next compound to report its EC50.
Need EC50 of O=C(NC[C@H](O)CN1CCc2ccccc21)c1cc(NC2COC2)ncn1 , thanks.
> 1000 nM

----------
Listed compounds paired with reported IC50
# Target Desc: PRMT5/MEP50 (Homo sapiens (Human))
# Experiment Summary: PRMT5 Biochemical Assay (PRMT5/MEP50 enzyme assay on peptide substrate, 3H-SAM Flashplate)
# Reported Conditions: PRMT5/MEP50 4 nM, 3H-SAM 75 nM, peptide 40 nM

COc1ccc(Cn2cnc3ccc(-c4ccc(OCC(O)CN5Cc6ccccc6C5)cc4)cc32)cc1 (centres unmarked) : 1 to 10 µM
Cn1cnc2ccc(-c3cccc(OCC(O)CN4Cc5ccccc5C4)c3)cc21 (centres unmarked) : 1 to 10 µM
CC(=O)N1CC(Nc2cc(C(=O)NC[C@H](O)CN3CCCc4ccccc4C3)ncn2)C1 : 1 to 10 µM
O=C(NC[C@H](O)CN1CCCc2ccccc2C1)c1cc(NC2COC2)ncn1 : > 10 µM
CC(=O)N1CCC(Nc2cc(C(=O)NC[C@H](O)CN3CCCCc4ccccc43)ccn2)CC1 : > 10 µM

Need IC50 of CS(=O)(=O)c1ccccc1OCC(=O)NCC(O)CN1Cc2ccccc2C1 (centres unmarked) , thanks.
0.101 to 1 µM

What about this compound? CC(=O)N1CC(Nc2cc(C(=O)NC[C@H](O)CN3CCc4ccccc43)ncn2)C1
1 to 10 µM

What about this compound? Cc1nc(NC2COC2)cc(C(=O)NC[C@H](O)CN2Cc3ccccc3C2)n1
0.101 to 1 µM

----------
Listed compounds paired with reported IC50
# Target Desc: PRMT5/MEP50 (Homo sapiens (Human), UniProt O14744)
# Sequence (O14744 other isoform, or with tags, fused parts or gaps): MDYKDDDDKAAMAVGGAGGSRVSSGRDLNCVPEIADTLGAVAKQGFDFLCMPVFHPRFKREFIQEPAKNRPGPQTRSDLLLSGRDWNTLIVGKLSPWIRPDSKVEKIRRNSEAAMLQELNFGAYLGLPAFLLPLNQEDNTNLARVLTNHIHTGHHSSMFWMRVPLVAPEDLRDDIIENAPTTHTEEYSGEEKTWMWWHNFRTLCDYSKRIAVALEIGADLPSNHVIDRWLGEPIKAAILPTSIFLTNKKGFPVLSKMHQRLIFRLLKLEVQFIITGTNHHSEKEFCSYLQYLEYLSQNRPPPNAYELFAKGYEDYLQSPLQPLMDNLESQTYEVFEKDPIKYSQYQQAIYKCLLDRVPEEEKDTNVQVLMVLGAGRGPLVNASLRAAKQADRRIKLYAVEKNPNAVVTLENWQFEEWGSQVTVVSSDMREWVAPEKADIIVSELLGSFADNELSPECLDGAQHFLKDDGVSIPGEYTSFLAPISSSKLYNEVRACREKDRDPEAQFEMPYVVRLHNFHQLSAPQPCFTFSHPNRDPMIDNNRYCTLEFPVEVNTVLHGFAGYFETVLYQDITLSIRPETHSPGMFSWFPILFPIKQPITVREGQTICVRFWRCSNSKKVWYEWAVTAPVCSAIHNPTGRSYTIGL
# Sequence (Q9BQA1 other isoform, or with tags, fused parts or gaps partner): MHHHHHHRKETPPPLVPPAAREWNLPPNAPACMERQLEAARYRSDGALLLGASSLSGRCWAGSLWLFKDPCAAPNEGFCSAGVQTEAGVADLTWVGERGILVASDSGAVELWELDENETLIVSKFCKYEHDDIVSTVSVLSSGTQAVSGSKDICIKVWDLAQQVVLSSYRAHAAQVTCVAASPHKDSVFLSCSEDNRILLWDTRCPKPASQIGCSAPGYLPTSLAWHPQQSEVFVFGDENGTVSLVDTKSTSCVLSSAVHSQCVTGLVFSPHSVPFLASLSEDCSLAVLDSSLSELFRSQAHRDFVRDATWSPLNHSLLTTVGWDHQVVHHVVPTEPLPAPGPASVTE
# Experiment Summary: PRMT5 Biochemical Assay (PRMT5/MEP50 enzyme assay on peptide substrate, 3H-SAM Flashplate)
# Reported Conditions: PRMT5/MEP50 4 nM, 3H-SAM 75 nM, peptide 40 nM
# Description: S-adenosylmethionine (SAM), S-adenosylhomocysteine (SAH), bicine, KCl, Tween20, dimethylsulfoxide (DMSO), bovine skin gelatin (BSG), and Tris(2-carboxyethyl)phosphine hydrochloride solution (TCEP) were purchased from Sigma-Aldrich at the highest level of purity possible. ^3H-SAM was purchase from American Radiolabeled Chemicals with a specific activity of 80 Ci/mmol. 384-well streptavidin Flashplates were purchased from PerkinElmer. […]

O=C(COc1ccccc1-c1cc[nH]n1)NCC(O)CN1Cc2ccccc2C1 (stereo not shown) : 0.101 to 1 µM

Need IC50 of O=C(NC[C@H](O)CN1Cc2ccccc2C1)c1cc(NC2CCOCC2)ncn1 , thanks.
< 0.1 µM

What about this compound? O=C(NC[C@H](O)CN1CCc2ccccc21)c1cc(NC2COC2)ncn1
> 10 µM

What about this compound? CC(=O)N1CCC(Nc2cc(C(=O)NC[C@H](O)CN3CCCc4ccccc4C3)ccn2)CC1
1 to 10 µM

Data origin, for the record: patent US10118918B2
